Target: calcium sensing receptor as found in the human parathyroid gland (Homo sapiens)
Experiment: calcium mobilization fluorescence (FLIPR) assay, agonist mode
Settings: transfected HEK 293 cells; 1 mM calcium standard; Tables 2-7; read-out: In Vitro: CS50, where potency is at 50% of the calcium standard potency
attributeMeasured: EC50 (µM)

Solved entries (count: 5):
- compound: "COc1cccc([C@@H](C)NCC2CC2c2ccccc2F)c1 (stereo partly drawn) [Compound 17]"
  attributeMeasured: "EC50"
  experimentalValue: 5
- compound: "C[C@@H](NC[C@@H]1C[C@H]1c1ccccc1)c1cccc(O)c1"
  attributeMeasured: "EC50"
  experimentalValue: 8.7
- compound: "COc1cccc([C@@H](C)NCC2CC2c2c(F)cccc2F)c1 (stereo partly drawn)"
  attributeMeasured: "EC50"
  experimentalValue: 11.9
- compound: "COc1cccc([C@@H](C)NC[C@@H]2C[C@H]2c2ccccc2)c1"
  attributeMeasured: "EC50"
  experimentalValue: 5
- compound: "COc1cccc([C@@H](C)NCC2CC2c2ccccn2)c1 (stereo partly drawn)"
  attributeMeasured: "EC50"
  experimentalValue: 6.5

1: COc1cccc([C@@H](C)NCC2CC2c2ccccc2F)c1 (single isomer, unassigned) [Compound 18]
2: COc1cccc([C@@H](C)NCC2CC2c2cccnc2)c1 (stereo partly drawn)
Input: API: POST /compare with 1 and 2 ; response names the item with higher EC50. Kindly give the label for the entry you pick.
Output: 2

---

Biological target: calcium sensing receptor as found in the human parathyroid gland (Homo sapiens, UniProt P41180)
Sequence (P41180 20-1078): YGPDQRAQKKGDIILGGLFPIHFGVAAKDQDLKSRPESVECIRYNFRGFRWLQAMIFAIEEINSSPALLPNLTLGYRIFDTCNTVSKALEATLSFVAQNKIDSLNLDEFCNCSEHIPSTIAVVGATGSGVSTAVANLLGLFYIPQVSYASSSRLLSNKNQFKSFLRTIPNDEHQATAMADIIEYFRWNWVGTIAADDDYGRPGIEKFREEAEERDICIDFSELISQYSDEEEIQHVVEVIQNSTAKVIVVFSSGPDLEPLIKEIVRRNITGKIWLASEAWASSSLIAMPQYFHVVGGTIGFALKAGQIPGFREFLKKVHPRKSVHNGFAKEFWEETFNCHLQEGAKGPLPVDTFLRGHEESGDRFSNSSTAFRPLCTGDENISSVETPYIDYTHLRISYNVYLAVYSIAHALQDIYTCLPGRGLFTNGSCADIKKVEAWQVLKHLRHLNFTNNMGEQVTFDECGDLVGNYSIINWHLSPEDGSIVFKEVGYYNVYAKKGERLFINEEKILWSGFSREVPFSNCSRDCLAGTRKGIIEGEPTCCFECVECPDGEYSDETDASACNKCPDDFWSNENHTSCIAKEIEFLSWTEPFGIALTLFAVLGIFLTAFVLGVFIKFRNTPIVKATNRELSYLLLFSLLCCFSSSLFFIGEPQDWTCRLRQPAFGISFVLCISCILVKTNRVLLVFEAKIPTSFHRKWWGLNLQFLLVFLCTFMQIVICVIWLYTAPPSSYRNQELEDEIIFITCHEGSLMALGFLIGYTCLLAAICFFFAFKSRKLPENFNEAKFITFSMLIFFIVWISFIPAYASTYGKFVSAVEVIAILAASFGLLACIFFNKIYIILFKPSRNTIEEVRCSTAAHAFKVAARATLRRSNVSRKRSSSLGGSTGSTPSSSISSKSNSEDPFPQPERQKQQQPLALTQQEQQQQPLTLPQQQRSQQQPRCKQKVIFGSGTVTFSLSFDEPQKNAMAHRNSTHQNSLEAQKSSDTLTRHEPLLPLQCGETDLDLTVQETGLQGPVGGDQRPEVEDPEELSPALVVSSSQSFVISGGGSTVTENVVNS
Assay: calcium mobilization fluorescence (FLIPR) assay, agonist mode
Details: transfected HEK 293 cells; 1 mM calcium standard; Tables 2-7; read-out: In Vitro: CS50, where potency is at 50% of the calcium standard potency
Measured EC50 of individual entries

- compound: "COc1cccc([C@@H](C)NCC2CC2c2ccccc2F)c1 (single isomer, unassigned) [Compound 19]"
  EC50: "9.6 µM"
- compound: "COc1cccc([C@H](C)NC[C@H]2C[C@@H]2c2ccccc2)c1"
  EC50: "> 25 µM"
- compound: "COc1cccc([C@@H](C)NC[C@H]2C[C@@H]2c2ccccc2)c1"
  EC50: "12.9 µM"
- compound: "CC(NC[C@@H]1C[C@H]1c1ccccc1)c1ccc2c(c1)OCO2 (some centres unmarked)"
  EC50: "> 25 µM"
- compound: "COc1cccc([C@@H](C)N(C[C@@H]2C[C@H]2c2ccccc2)C(=O)C(C)(C)C)c1"
  EC50: "> 25 µM"
- compound: "c1ccc([C@@H]2C[C@H]2CNCc2cccnc2)cc1 (relative stereo)"
  EC50: "> 25 µM"
- compound: "COc1cccc([C@@H](C)NCC2CC2c2cc(C)ccc2C)c1 (some centres unmarked) [Compound 33]"
  EC50: "> 25 µM"
- compound: "COc1cccc([C@@H](C)NCC2CC2c2ccc(F)cc2)c1 (some centres unmarked)"
  EC50: "13.5 µM"
- compound: "COc1cccc([C@@H](C)NC[C@H]2C[C@H]2c2cc(C)ccc2C)c1"
  EC50: "> 25 µM"
- compound: "COc1cccc([C@@H](C)NCC2CC2c2ccncc2)c1 (some centres unmarked)"
  EC50: "> 25 µM"

Field: next compound
Field EC50 (entry "COc1cccc([C@H](C)NC[C@H]2C[C@H]2c2ccccc2)c1" ) reads > 25 µM
